The values you see were collected from patent US10188756B2.

Biological target: HDAC5 (Homo sapiens (Human))
reported_property: IC50 (µM)

Solved cases (2 shown):
CN(Cc1ccc(/C=C/C(=O)NO)cc1F)CC12CC3CC(CC(C3)C1)C2 = 4.75
Cn1cc(CCNCc2ccc(/C=C/C(=O)NO)cc2)c2ccccc21 = 0.099

(a) CN(Cc1ccc2c(c1)CCC(C(=O)NO)=C2)CC12CC3CC(CC(C3)C1)C2
(b) O=C(/C=C/c1ccc(CNCC23CC4CC(CC(C4)C2)C3)c(F)c1)NO
**Query** // task: argmin of IC50 over [ a , b ] Kindly state the label of the option you pick.
**Result** a

###

Target: HDAC1 (Homo sapiens (Human))
Sequence (Q13547 whole entry): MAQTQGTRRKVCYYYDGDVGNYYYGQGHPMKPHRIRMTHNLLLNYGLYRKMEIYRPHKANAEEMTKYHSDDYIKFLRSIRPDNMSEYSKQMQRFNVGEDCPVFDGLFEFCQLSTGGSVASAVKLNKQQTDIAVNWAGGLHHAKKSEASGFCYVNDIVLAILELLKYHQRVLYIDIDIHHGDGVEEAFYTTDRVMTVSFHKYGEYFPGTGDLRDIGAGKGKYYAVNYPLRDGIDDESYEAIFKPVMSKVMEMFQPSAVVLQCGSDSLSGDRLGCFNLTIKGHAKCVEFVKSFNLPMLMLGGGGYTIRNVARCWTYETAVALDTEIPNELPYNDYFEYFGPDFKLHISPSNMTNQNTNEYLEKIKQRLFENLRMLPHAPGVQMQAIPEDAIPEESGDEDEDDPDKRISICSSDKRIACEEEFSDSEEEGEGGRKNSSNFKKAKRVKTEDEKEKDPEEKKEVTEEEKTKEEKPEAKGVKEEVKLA
pIC50: −log10 of the molar value.
reported_property: pIC50

CN(C)c1ccc(C(=O)NCCCCCCC(=O)NO)cc1 [CN52] = 8.14

(A) COc1ccc2c(c1)C(=O)N(CCCCCC(=O)NO)c1ccccc1S2 [CN112]
(B) CN(c1ccccc1)S(=O)(=O)c1cccc(/C=C/C(=O)NO)c1 [CN88]
**Query** When their pIC50 values are compared, which is larger, A or B ? Kindly state the label of the option you pick.
**Result** A
(A: 8.92, B: 7.75)

###

pIC50 tested on HDAC8 (Homo sapiens (Human)): recorded values
pIC50: −log10 of the molar value.
reported_property: pIC50

Cn1cc(CCNCc2ccc(/C=C/C(=O)NO)cc2)c2ccccc21 = 5.98

(a) CCCCN(Cc1ccc(C(=O)NO)cc1)C(=O)Nc1ccccc1OC
(b) O=C(/C=C/c1ccc(CNCC23CC4CC(CC(C4)C2)C3)c(F)c1)NO
**Query** // task: argmin of pIC50 over [ a , b ] Kindly state the label of the option you pick.
**Result** b

(I) CN(c1ccccc1)S(=O)(=O)c1cccc(/C=C/C(=O)NO)c1
(II) CN(Cc1ccc(/C=C/C(=O)NO)cc1F)CC1CCCCC1
(III) CN(CCc1ccccc1)S(=O)(=O)c1cccc(/C=C/C(=O)NO)c1
**Query** hey, can you rank those compounds up there by pIC50? biggest number first please Form entry: labels listed in requested order.
**Result** III, I, II
(III: 6.82, I: 6.03, II: 5.74)

(I) O=C(/C=C/c1ccc(CNCC2CCCCC2)c(F)c1)NO
(II) COc1ccc2c(c1)C(=O)N(CCCCCC(=O)NO)c1ccccc1S2(=O)=O
**Query** // task: argmin of pIC50 over [ I , II ] Kindly state the label of the option you pick.
**Result** II

###

Target: HDAC2 (Homo sapiens (Human), UniProt Q92769)
Sequence (Q92769 whole entry): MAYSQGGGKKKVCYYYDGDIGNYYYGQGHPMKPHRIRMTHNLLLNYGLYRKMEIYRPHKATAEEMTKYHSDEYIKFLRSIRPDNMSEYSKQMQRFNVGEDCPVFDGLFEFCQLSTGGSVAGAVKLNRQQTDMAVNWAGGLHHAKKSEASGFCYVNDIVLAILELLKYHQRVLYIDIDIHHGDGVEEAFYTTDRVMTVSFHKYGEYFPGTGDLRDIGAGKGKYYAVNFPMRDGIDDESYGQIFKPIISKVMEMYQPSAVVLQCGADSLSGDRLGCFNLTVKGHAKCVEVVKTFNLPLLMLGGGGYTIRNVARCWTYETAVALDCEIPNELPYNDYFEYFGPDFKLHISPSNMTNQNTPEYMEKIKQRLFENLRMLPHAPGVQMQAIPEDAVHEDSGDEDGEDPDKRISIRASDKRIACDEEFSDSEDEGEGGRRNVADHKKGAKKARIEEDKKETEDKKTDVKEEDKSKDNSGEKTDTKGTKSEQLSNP
Experiment: HDAC inhibition assay
Format: biochemical
reported_property: IC50 (nM)

Solved cases (6 shown):
Cn1cc(CCNCc2ccc(/C=C/C(=O)NO)cc2)c2ccccc21 = 1.2
CCCCN(Cc1ccc(C(=O)NO)cc1)C(=O)Nc1ccccc1OC = 307
CN(C)CCOc1ccc2c(c1)C(c1ccc(C(=O)NO)cc1)=Nc1ccccc1O2 = 160
O=C(/C=C/c1ccc(CNCC23CC4CC(CC(C4)C2)C3)c(F)c1)NO = 6.4
CNc1ccc(C(=O)NCCCCC(=O)NO)cc1 = 477
CN(C)c1ccc(C(=O)NCCCCCCC(=O)NO)cc1 = 20.7

(P) O=C(NO)c1ccc(C2=Nc3ccccc3Oc3ccccc32)cc1
(Q) CCCCc1nc2cc(/C=C/C(=O)NO)ccc2n1CCN(C)C
**Query** When their IC50 values are compared, which is larger, P or Q ? Kindly state the label of the option you pick.
**Result** P
(P: 53.7 nM, Q: 18 nM)

###

Target: HDAC4 (Homo sapiens (Human), UniProt P56524)
Sequence (P56524 whole entry): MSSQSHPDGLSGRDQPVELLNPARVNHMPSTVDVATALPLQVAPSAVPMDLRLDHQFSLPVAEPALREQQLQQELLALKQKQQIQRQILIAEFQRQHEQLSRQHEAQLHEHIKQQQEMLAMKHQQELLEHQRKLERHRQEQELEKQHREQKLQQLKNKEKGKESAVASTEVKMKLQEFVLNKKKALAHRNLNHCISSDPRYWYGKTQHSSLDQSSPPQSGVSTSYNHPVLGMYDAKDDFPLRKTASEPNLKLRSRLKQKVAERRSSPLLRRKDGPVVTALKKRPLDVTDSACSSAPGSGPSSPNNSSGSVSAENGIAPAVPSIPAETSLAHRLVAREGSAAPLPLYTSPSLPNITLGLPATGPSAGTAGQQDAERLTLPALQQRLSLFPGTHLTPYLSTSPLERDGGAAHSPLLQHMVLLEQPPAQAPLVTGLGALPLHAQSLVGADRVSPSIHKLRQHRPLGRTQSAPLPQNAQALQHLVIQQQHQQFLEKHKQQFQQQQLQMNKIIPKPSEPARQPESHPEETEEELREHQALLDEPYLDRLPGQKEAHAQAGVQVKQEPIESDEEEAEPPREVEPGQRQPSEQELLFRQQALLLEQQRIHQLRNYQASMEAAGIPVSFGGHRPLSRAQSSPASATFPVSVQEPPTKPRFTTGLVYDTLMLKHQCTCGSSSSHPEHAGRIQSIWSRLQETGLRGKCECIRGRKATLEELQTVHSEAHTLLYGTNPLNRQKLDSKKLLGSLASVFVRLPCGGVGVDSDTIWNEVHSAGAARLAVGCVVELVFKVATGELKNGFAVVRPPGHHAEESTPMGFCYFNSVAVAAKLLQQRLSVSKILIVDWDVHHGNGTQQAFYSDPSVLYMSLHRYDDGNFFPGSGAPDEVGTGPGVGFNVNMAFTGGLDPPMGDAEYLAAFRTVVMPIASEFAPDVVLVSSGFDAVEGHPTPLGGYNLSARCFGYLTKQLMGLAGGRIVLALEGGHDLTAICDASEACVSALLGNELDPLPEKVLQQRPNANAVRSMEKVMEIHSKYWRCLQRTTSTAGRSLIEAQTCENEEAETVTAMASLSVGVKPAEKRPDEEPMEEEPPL
pIC50: −log10 of the molar value.
reported_property: pIC50

Cn1cc(CCNCc2ccc(/C=C/C(=O)NO)cc2)c2ccccc21 = 6.18
CN(Cc1ccc2c(c1)CCC(C(=O)NO)=C2)CC12CC3CC(CC(C3)C1)C2 = 6.41
CN(Cc1ccc(/C=C/C(=O)NO)cc1)CC12CC3CC(CC(C3)C1)C2 = 5.71
CN(CCc1ccccc1)S(=O)(=O)c1cccc(/C=C/C(=O)NO)c1 = 6.30

###

Assay: Plasma protein binding assay, human plasma
Type: in vitro ADME
Conditions: method derives % unbound, read-out: plasma protein binding (PPB) (converted)
reported_property: fraction unbound at 10 min
Answer with a bare number; do not write a unit.

**Query** Item under review: [11CH3]N(Cc1ccc(/C=C/C(=O)NO)cc1)CC12CC3CCC(CC(C3)C1)C2 [[11C]CN133] . Reported fraction unbound at 10 min?
**Result** 0.945

###

pIC50 tested on HDAC7 (Homo sapiens (Human), UniProt Q8WUI4): recorded values
Sequence (Q8WUI4 whole entry): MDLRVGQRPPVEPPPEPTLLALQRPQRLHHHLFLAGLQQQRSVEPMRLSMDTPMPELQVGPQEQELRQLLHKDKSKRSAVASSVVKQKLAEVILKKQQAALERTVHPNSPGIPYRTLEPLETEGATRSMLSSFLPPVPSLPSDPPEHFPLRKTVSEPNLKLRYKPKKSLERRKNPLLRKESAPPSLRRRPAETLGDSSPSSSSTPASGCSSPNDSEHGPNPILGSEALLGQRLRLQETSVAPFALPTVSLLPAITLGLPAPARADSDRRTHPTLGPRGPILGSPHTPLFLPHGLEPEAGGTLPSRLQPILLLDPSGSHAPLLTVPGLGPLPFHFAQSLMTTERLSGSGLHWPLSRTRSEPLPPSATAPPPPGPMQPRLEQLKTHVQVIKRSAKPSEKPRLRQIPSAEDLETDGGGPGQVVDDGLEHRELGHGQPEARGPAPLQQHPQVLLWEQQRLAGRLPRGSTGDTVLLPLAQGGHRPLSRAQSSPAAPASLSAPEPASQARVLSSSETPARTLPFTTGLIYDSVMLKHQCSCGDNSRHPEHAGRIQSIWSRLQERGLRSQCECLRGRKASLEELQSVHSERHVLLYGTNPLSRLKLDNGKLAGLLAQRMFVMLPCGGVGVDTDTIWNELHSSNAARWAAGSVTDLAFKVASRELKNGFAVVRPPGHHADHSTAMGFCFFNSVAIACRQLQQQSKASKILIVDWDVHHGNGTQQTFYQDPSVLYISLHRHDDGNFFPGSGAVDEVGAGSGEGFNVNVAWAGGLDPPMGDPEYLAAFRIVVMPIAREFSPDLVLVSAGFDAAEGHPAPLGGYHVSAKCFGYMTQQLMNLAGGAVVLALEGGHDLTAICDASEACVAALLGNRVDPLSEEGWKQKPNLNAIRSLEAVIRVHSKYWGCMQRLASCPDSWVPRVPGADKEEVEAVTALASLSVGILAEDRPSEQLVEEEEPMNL
pIC50: −log10 of the molar value.

**Query** Param readout = pIC50; param system = HDAC7 (Homo sapiens (Human), UniProt Q8WUI4); param query = CN(Cc1ccc(/C=C/C(=O)NO)cc1)CC12CC3CC(CC(C3)C1)C2 [CN133] ; response: value
**Result** < 4.70

**Query** Param readout = pIC50; param system = HDAC7 (Homo sapiens (Human), UniProt Q8WUI4); param query = O=C(/C=C/c1ccc(CN(CCF)CC23CC4CC(CC(C4)C2)C3)cc1)NO [CN146] ; response: value
**Result** < 4.52

**Query** Param readout = pIC50; param system = HDAC7 (Homo sapiens (Human), UniProt Q8WUI4); param query = O=C(/C=C/c1ccc(CNCC2CCCCC2)cc1)NO [CN143] ; response: value
**Result** < 4.70

###

IC50 tested on UniProt:O15379: recorded values
Sequence (O15379 whole entry): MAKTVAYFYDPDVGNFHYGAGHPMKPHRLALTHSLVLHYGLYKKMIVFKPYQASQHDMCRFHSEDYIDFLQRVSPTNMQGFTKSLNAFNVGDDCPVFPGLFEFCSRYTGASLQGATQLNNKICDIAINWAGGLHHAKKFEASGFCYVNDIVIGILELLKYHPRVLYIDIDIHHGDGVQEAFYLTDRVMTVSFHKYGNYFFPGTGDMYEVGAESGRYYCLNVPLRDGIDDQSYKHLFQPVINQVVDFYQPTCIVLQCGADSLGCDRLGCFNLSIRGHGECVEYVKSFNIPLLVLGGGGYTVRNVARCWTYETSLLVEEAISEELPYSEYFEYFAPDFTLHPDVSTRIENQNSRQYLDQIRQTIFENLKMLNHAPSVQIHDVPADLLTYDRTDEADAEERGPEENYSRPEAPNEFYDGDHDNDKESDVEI
Sequence (Q9Y618 395-489 partner): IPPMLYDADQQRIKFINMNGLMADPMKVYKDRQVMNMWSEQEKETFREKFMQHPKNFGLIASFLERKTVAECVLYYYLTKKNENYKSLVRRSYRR
reported_property: IC50 (nM)

Solved cases (3 shown):
Cn1cc(CCNCc2ccc(/C=C/C(=O)NO)cc2)c2ccccc21 = 0.4
CN(C)c1ccc(C(=O)NCCCCCCC(=O)NO)cc1 = 4.3
CN(Cc1ccc(/C=C/C(=O)NO)cc1)CC12CC3CC(CC(C3)C1)C2 = 0.6

(A) O=C(/C=C/c1ccc(CN(CCF)CC23CC4CC(CC(C4)C2)C3)cc1)NO
(B) CCCCN(Cc1ccc(C(=O)NO)cc1)C(=O)Nc1ccccc1OC
(C) O=C(/C=C/c1ccc(CNCC23CC4CC(CC(C4)C2)C3)c(F)c1)NO
(D) CN(Cc1ccc(/C=C/C(=O)NO)cc1F)CC1CCCCC1
**Query** hey, can you rank those compounds up there by IC50? biggest number first please Form entry: labels listed in requested order.
**Result** A, B, D, C

###

IC50 tested on HDAC5 (Homo sapiens (Human)): recorded values

**Query** Item under review: CN(CCc1ccccc1)S(=O)(=O)c1cccc(/C=C/C(=O)NO)c1 . Reported IC50?
**Result** > 10 µM

**Query** Item under review: CN(Cc1ccc(/C=C/C(=O)NO)cc1)CC12CC3CC(CC(C3)C1)C2 . Reported IC50?
**Result** 0.352 µM

**Query** Item under review: O=C(/C=C/c1ccccc1)NO . Reported IC50?
**Result** > 10 µM

**Query** Item under review: CCCCc1nc2cc(/C=C/C(=O)NO)ccc2n1CCN(C)C . Reported IC50?
**Result** > 10 µM

**Query** Item under review: CN(C)Cc1ccc(/C=C/C(=O)NO)cc1 . Reported IC50?
**Result** > 70 µM

###

Target: HDAC1 (Homo sapiens (Human))
reported_property: IC50 (nM)

CCCCN(Cc1ccc(C(=O)NO)cc1)C(=O)Nc1ccccc1OC [CN165] = 96.7
COc1ccc(/C=C/C(=O)NO)cc1 [CN87] = 301
O=C(/C=C/c1ccc(CN(CCF)CC23CC4CC(CC(C4)C2)C3)cc1)NO [CN146] = 221

(I) CCCCc1nc2cc(/C=C/C(=O)NO)ccc2n1CCN(C)C [CN101]
(II) CN(Cc1ccc2c(c1)CCC(C(=O)NO)=C2)CC12CC3CC(CC(C3)C1)C2 [CN141]
(III) CNc1ccc(C(=O)NCCCCC(=O)NO)cc1 [CN51]
(IV) O=C(/C=C/c1ccc(CNCC2CCCCC2)cc1)NO [CN143]
(V) O=C(/C=C/c1ccc(CNCC23CC4CC(CC(C4)C2)C3)c(F)c1)NO [CN148]
**Query** rank_up(items): orders items by reported IC50 in ascending numerical order. Form entry: labels listed in requested order.
**Result** V, IV, I, II, III

###

IC50 tested on HDAC8 (Homo sapiens (Human), UniProt Q9BY41): recorded values
Sequence (Q9BY41 whole entry): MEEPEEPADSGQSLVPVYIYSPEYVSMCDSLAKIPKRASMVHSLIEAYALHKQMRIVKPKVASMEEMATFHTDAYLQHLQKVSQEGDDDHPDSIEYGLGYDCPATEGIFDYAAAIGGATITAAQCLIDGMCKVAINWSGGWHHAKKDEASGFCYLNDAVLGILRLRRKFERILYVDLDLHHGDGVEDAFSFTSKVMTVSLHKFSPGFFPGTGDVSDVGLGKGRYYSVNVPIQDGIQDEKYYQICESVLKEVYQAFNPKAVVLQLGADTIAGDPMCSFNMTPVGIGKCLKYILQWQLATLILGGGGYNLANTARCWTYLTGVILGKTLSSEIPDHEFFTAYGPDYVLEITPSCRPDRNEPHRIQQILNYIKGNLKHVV

O=C(/C=C/c1ccc(CN(CCF)CC23CC4CC(CC(C4)C2)C3)cc1)NO = > 30 µM
CN(Cc1ccc(/C=C/C(=O)NO)cc1)CC12CC3CC(CC(C3)C1)C2 = > 15 µM
COc1ccc2c(c1)C(=O)N(CCCCCC(=O)NO)c1ccccc1S2 = > 70 µM

Next item in the queue.
**Query** Param readout = IC50; param system = HDAC8 (Homo sapiens (Human), UniProt Q9BY41); param query = O=C(/C=C/c1ccc(CNCC23CC4CC(CC(C4)C2)C3)cc1)NO ; response: value
**Result** > 10 µM
